Tested on: C. elegans
Experiment: microbe, parasite or virus in culture
Conditions: Caenorhabditis elegans, 0 h, read-out: Percentage of motility inhibition 0 h, Table S2, C. elegans SS assay, 110 μM, 0 h, averages of 4 data points
MEASUREMENT TYPE: inhibition at 110 µM (%)
Numeric answer only, unit % assumed.

Problem: Can you look up the measured inhibition at 110 µM of CC(C)=CCc1c(O)c(CC=C(C)C)c2oc3c(O)cccc3c(=O)c2c1O [8‐Deoxygartanin] for me?
Result: 14

Problem: Can you look up the measured inhibition at 110 µM of O=C(O)CCC(=O)O [Succinic acid] for me?
Result: 14

Problem: Can you look up the measured inhibition at 110 µM of CN(C)CCc1ccc(O)cc1 [Hordenine] for me?
Result: 28

Problem: Can you look up the measured inhibition at 110 µM of Oc1c(I)cc(Cl)c2cccnc12 [Clioquinol] for me?
Result: 23

Problem: Can you look up the measured inhibition at 110 µM of Cc1cn([C@@H]2C[C@@H](O)[C@H](CO)O2)c(=O)[nH]c1=O [Telbivudine] for me?
Result: 39

Problem: Can you look up the measured inhibition at 110 µM of CCN1C[C@]2(COC)CC[C@H](OC)[C@]34C1[C@H](C[C@H]23)[C@@]1(O)C[C@H](OC)[C@H]2C[C@@H]4[C@@H]1[C@H]2O [Talatisamine] for me?
Result: 6

Problem: Can you look up the measured inhibition at 110 µM of COc1cc(O)c2c(c1)O[C@H](c1ccc(O)cc1)CC2=O [Sakuranetin] for me?
Result: 19

Problem: Can you look up the measured inhibition at 110 µM of O=C(O)[C@H]1O[C@@H](Oc2c(O)cc(O)c3c(=O)c(O)c(-c4ccc(O)c(O)c4)oc23)[C@H](O)[C@@H](O)[C@@H]1O [Hibifolin] for me?
Result: 6

Problem: Can you look up the measured inhibition at 110 µM of O=C(O)c1cccnc1 [Niacin] for me?
Result: 0

---

Provide the recorded inhibition at 110 µM for the entries that follow.
Test system: C. elegans
Experiment: microbe, parasite or virus in culture
Conditions: Caenorhabditis elegans, 24 h, read-out: Percentage of motility inhibition 24 h, Table S2, C. elegans SS assay, 110 μM, 24 h, averages of 4 data points
Where a name gives a salt, the structure may show the parent alone.
Numeric answer only, unit % assumed.

Problem: Can you look up the measured inhibition at 110 µM of COc1ccc(-c2oc3cc(O)cc(O)c3c(=O)c2O)cc1 [Kaempferide] for me?
Result: 0

Problem: Can you look up the measured inhibition at 110 µM of COc1ccc([C@@H](O)CNC(=O)/C=C/c2ccccc2)cc1 (racemic) for me?
Result: 6

Problem: Can you look up the measured inhibition at 110 µM of O=c1cc(-c2ccccc2)oc2ccc(O)cc12 [6‐Hydroxyflavone] for me?
Result: 2

Problem: Can you look up the measured inhibition at 110 µM of `C/C(=C\CC[C@@H](C)[C@H]1CC[C@@]2(C)C3=CC[C@H]4C(C)(C)[C@@H](O)CC[C@]4(C)C3=CC[C@]12C)CO` for me?
Result: 35

Problem: Can you look up the measured inhibition at 110 µM of `CN(C)c1cc(NC(=O)CNC(C)(C)C)c(O)c2c1C[C@H]1C[C@H]3[C@H](N(C)C)C(O)=C(C(N)=O)C(=O)[C@@]3(O)C(O)=C1C2=O` for me?
Result: 19

Problem: Can you look up the measured inhibition at 110 µM of `CC(C)[C@]12CC(=O)[C@H](C)[C@H]1C2` for me?
Result: 20

Problem: Can you look up the measured inhibition at 110 µM of O=C(O)C1=CCCNC1 [Guvacine hydrochloride] for me?
Result: 0

Problem: Can you look up the measured inhibition at 110 µM of `CCN(CC)CCNc1ccc(CO)c2sc3ccccc3c(=O)c12` for me?
Result: 26
